- TARGET UNDER TEST: bovine factor Xa (Bos taurus, UniProt P00743)
- Construct: bovine factor Xa, Chromogenix, 2 nkat/mL; purchased Chromogenix
- Sequence (P00743 234-492 limits assumed): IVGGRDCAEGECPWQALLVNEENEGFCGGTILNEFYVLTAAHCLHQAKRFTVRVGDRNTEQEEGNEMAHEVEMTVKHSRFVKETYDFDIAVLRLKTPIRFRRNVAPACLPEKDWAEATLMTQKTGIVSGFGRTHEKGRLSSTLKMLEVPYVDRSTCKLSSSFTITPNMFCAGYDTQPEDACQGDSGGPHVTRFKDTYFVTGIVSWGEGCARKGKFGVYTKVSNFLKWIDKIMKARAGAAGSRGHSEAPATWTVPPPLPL
- Sequence (P00743 41-180 partner limits assumed): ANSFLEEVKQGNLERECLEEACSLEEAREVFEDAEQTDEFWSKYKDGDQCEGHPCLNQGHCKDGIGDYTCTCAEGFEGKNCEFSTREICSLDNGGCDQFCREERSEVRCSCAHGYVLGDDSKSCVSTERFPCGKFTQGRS
- PROCEDURE DETAILS: Protease inhibitory assay, chromogenic substrate S-2222
- Format: biochemical
- CONDITIONS: FactorXa Ki determination; substrate 200 µM; cmpd conc 200 µM
MEASUREMENT NAME: V0 / Vi

>>> reported("Oc1ccccc1N1CCCCC1 [SX-A12]")
1.14
>>> reported("c1ccc(Nc2nncs2)cc1 [SX-D8]")
1.14
>>> reported("Cc1cc2ccccc2nc1N [SX-A1]")
1.59
>>> reported("CC(=O)c1sc(-c2ccc(O)cc2)nc1C [SX-E1]")
1.13
>>> reported("Cn1c(N)nc2ccccc21 [SX-A6]")
1.30
>>> reported("COc1ccccc1CC1CCNCC1.Cl [SX-B12]")
1.25
>>> reported("O=C1NC(=O)/C(=C\\c2cccs2)N1 [SX-H12]")
1.24
>>> reported("O=C(c1ccccc1F)N1CCNCC1 [SX-E12]")
1.17

---

- TARGET UNDER TEST: human 5-HT7b receptor (Homo sapiens, UniProt P34969)
- Construct: expressed in transfected cells
- Sequence (P34969 1-432): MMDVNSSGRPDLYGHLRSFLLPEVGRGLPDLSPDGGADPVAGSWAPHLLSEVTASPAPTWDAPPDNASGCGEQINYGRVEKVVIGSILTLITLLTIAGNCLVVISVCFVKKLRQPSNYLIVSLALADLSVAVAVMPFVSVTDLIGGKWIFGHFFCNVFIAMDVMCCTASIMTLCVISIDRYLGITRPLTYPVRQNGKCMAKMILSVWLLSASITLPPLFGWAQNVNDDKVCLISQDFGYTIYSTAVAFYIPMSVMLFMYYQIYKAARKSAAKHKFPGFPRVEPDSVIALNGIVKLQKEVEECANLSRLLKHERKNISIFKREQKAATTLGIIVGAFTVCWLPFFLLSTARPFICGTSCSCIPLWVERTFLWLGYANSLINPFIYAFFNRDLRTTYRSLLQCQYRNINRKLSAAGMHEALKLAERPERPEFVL
- PROCEDURE DETAILS: GPCR radioligand binding assay, [3H]-5-CT displacement, HEK293 membranes
- CONDITIONS: 5-HT7; replicate exp_2; read-out: %inh 5-HT7 exp_2
MEASUREMENT NAME: inhibition at 10 µM (%)

>>> reported("Nc1nnc(-c2cccs2)[nH]1 [D3]")
-5
>>> reported("Oc1ccccc1N1CCCCC1 [A12]")
4.58
>>> reported("c1cnc2cccnc2c1 [SX002]")
31
>>> reported("NC(=O)N1CCC(C(=O)O)CC1 [SX048]")
-4.44
>>> reported("O=C(c1ccccc1F)N1CCNCC1 [E12]")
-8
>>> reported("CC1CCc2sc(C(=O)O)cc2C1 (stereo not shown) [SX045]")
14
>>> reported("c1cnc2ncccc2c1 [SX003]")
36

---

- System: SARS-CoV-2
- PROCEDURE DETAILS: microbe, parasite or virus in culture
- Type: cell-based
- CONDITIONS: read-out: EC50, blocking SARS-CoV-2 replication; Vero E6 cells, 48 h post infection
MEASUREMENT NAME: EC50 (µM)

>>> reported("CS(=O)(=O)c1ccc(N2CCNCC2)cc1")
304

---

Recorded %inh 5-HT7 exp_1, one value per entry.
- TARGET UNDER TEST: human 5-HT7b receptor (Homo sapiens, UniProt P34969)
- Construct: expressed in transfected cells
- PROCEDURE DETAILS: GPCR radioligand binding assay, [3H]-5-CT displacement, HEK293 membranes
- CONDITIONS: 5-HT7; replicate exp_1
MEASUREMENT NAME: %inh 5-HT7 exp_1

>>> reported("O=C1CCC(=O)N(c2ccccc2)N1 [H7]")
"27%"
>>> reported("NC(c1ccccc1)c1ccccc1 [C3]")
"-16%"
>>> reported("Oc1cnc(-c2ccccc2)nc1 [F11]")
"-8%"
>>> reported("COc1ccccc1N1CCNCC1 [A10]")
"67%"
>>> reported("O=C(CN1CCCC1)c1ccccc1Cl [G10]")
"8%"
>>> reported("Cn1c(CO)nc2ccccc21 [G2]")
"10%"
>>> reported("Cc1ccc(-c2ccc(O)cc2)cc1 [D7]")
"2.16%"
>>> reported("Fc1ccc(CC2CCCNC2)cc1 (stereo not drawn) [C1]")
"27%"
>>> reported("NC1CCc2ccccc21 (stereo not drawn) [B4]")
"28%"
>>> reported("Cc1ccc(C)n1Cc1ccccc1Cl [D6]")
"-2.55%"
>>> reported("c1ccc2sc(N3CCNCC3)nc2c1 [G5]")
"32%"
>>> reported("Cc1nc(-c2ccccc2)cs1 [A7]")
"-4%"
>>> reported("CC1C(=O)NC(=O)N1c1ccc(Cl)cc1 (stereo not drawn) [E3]")
"19%"
>>> reported("CCc1ccc(NC2=NCCCS2)cc1 [D2]")
"12%"
>>> reported("Oc1ccc(C2CCNCC2)cc1 [E11]")
"10%"
>>> reported("CCN(CC)c1cccc(C)c1 [E4]")
"12%"
>>> reported("FC1(F)CNCC(F)(F)O1 [H3]")
"-4%"
>>> reported("O=C(O)C1CCCN(C(=O)N2CCCC2)C1 (stereo not drawn) [G6]")
"10%"
>>> reported("c1ccc(-c2ccncc2)cc1 [C2]")
"14%"
>>> reported("CCCN1C(=O)CC(=O)NC1=S [D5]")
"13%"
>>> reported("N#Cc1ccc(C(=O)N2CCOCC2)cc1 [E10]")
"10%"
>>> reported("O=C(O)CC1CCC(=O)N1 (stereo not drawn) [H2]")
"4.76%"
>>> reported("O=C1CSC(Nc2ccc(F)cc2)=N1 [H10]")
"3.25%"
>>> reported("COc1ccc(CN2CCNCC2)cc1F [D11]")
"-5%"
>>> reported("Cc1nccn1Cc1cccc(C#N)c1 [F8]")
"14%"
>>> reported("O=C(c1ccncc1)N1CCNCC1 [E2]")
"1.81%"
>>> reported("c1ccc2oc(C3CCCNC3)nc2c1 (stereo not drawn) [D10]")
"-4%"
>>> reported("O=C1NC(=O)C2(CCc3ccccc32)N1 (stereo not drawn) [B7]")
"10%"
>>> reported("NCC1(c2ccccc2)CCOCC1 [F10]")
"-0.903%"
>>> reported("CN1CC(=O)NC1=O [B10]")
"-15%"
